Biological target: Liver GK (Homo sapiens, UniProt P35557)
Construct: (His)6; made in house; host or cells: Escherichia coli
Assay: Glucokinase enzyme assay, liver GK
Format: biochemical
Conditions: percentage increase in GK activity above vehicle control, compound 50 μM, 12 mM glucose
value_kind: activation at 50 µM (%)
Field: numeric (%). Do not append units.

Answered cases to consult:
# query: activation at 50 µM of entry COc1ccc(CN2C(=O)C(C)=C(C)C2OCC(=O)Nc2nccs2)cc1 (centres unmarked) [Compound 31] 21

# query: activation at 50 µM of entry CC1=C(C)C(SCC(=O)Nc2ccccn2)N(Cc2ccc(C(C)C)cc2)C1=O (centres unmarked) [Compound 25] 180

# query: activation at 50 µM of entry COc1ccc(CN2C(=O)C(C)=C(C)C2SCC(=O)Nc2nccs2)cc1 (centres unmarked) [Compound 2] 169

# query: activation at 50 µM of entry COc1ccc(CN2C(=O)C(C)=CC2SCC(=O)Nc2ccccn2)cc1 (centres unmarked) [Compound 15] 122

# query: activation at 50 µM of entry COc1ccc(CN2C(=O)C(C)=C(C)C2SCC(=O)Nc2ccccn2)c(OC)c1 (centres unmarked) [Compound 10] 128

# query: activation at 50 µM of entry COc1ccc(CN2C(=O)C(C)=C(C)C2OCC(=O)Nc2ccc(C)cn2)cc1 (centres unmarked) [Compound 28] 90

New cases:
# query: activation at 50 µM of entry COC(=O)c1ccc(NC(=O)COC2C(C)=C(C)C(=O)N2Cc2ccc(OC)cc2)nc1 (centres unmarked) [Compound 27] 90

# query: activation at 50 µM of entry COc1ccc(CN2C(=O)C(c3ccccc3)=CC2SCC(=O)Nc2nccs2)cc1 (centres unmarked) [Compound 3] 64.9

---

Target: Pancreas GK (Homo sapiens, UniProt P35557)
Construct: (His)6
Sequence (P35557 1-465): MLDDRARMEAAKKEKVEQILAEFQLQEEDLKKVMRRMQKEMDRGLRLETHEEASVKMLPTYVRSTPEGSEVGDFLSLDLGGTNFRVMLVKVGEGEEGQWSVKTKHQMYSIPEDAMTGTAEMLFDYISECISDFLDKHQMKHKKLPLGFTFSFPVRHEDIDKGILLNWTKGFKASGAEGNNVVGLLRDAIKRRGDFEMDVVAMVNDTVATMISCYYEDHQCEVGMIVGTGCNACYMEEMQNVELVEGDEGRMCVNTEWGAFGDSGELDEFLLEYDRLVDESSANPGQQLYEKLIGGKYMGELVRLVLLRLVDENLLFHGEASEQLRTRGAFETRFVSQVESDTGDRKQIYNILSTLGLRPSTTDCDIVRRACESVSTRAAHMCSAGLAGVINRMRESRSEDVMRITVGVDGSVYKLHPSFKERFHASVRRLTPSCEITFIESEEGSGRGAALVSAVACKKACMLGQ
Test: Glucokinase enzyme assay, pancreas GK
Settings: concentration that produces 50% activation above the vehicle control
Recorded pEC50 by entry
In simple prose, pEC50 is minus the logarithm base ten of a concentration in moles per litre.

Answered cases to consult:
# query: pEC50 of entry CC1=C(C)C(SCC(=O)Nc2ccccn2)N(Cc2ccc(N(C)C)cc2)C1=O (stereo not shown) 5.60

# query: pEC50 of entry COC(=O)c1ccc(NC(=O)COC2C(C)=C(C)C(=O)N2Cc2ccc(OC)cc2)nc1 (stereo not shown) 4.70

# query: pEC50 of entry COc1cc(CN2C(=O)C(C)=C(C)C2SCC(=O)Nc2ccccn2)cc(OC)c1 (stereo not shown) 4.93

Here is the next item to consider.
# query: pEC50 of entry COC(=O)c1ccc(NC(=O)CSC2C(C)=C(C)C(=O)N2Cc2ccc(OC)cc2)nc1 (stereo not shown) 6.19
